Target: T1, Bzz1-2, P38822
T1 sequence (P38822 568-633, looked up): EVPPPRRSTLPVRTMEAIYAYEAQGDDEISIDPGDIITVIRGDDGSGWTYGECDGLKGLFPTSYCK
Test: SPOT array
Settings: median of control spots 4538
Outcome measure: SPOT intensity

Tell me its SPOT intensity given VGFRLALKFPSRITG as the entry. 109

A: STKKPRPPVKSKPKH
B: RRLRDKYKLPIVDAD
C: VQKRKLPLPGSIASA
# rank_down: sort by SPOT intensity, max first Give the labels in the order specified. A, B, C
